TGI: recorded values
# Tested on: RPMI-8226 leukemia
# test summary: NCI tumour cell line growth inhibition, 48 h

| molecule | outcome measure | measured |
| --- | --- | --- |
| O=C(NC12CC3CC(CC(C3)C1)C2)n1cnc2cncnc21 | TGI | 79.4 µM |
| N=C(N)c1ccc(-c2ccc(-c3ccco3)o2)cc1 | TGI | 7.52 µM |
| O=C1N2CCN=C2c2ccccc2C1(O)c1ccccc1 (stereo not given) | TGI | > 100 µM |
| CC(C)CCC[C@@H](C)C1CCC2[C@@H]3CC=C4C[C@@H](OC(=O)CCC(=O)NCC[N+](C)(C)CCCS(=O)(=O)[O-])CC[C@]4(C)C3CC[C@@]21C (stereo not given in full) | TGI | 45.9 µM |
| CN(C)c1ccc(C(=C2C=CC(=[N+](C)C)C=C2)c2c(O)c(S(=O)(=O)[O-])cc3cc(S(=O)(=O)O)ccc23)cc1 | TGI | > 100 µM |
| c1cc(C2O[C@H]3CCCN3[C@@H]2c2ccncc2)ccn1 (stereo not given in full) | TGI | > 100 µM |
| O=C1c2cc(Br)ccc2-c2c1c1ccccc1c(=O)n2CCCCl | TGI | > 100 µM |
| Nc1nc(-c2ccccc2)cc(-c2ccc(F)cc2)c1-c1ccc(Cl)cc1 | TGI | > 100 µM |
| O=C(c1ccc(Cl)cc1)N(C(=S)N1CCN(c2ccccc2)CC1)C1CCCCC1 | TGI | > 100 µM |
| COc1cc(C2C3=C(COC3=O)N(CCO)c3cc4c(cc32)OCCO4)cc(OC)c1O (stereo not given) | TGI | > 50 µM |

Query block: Lab note: need TGI with RPMI-8226 leukemia for entry COC(=O)c1nc(N)[nH]c(=O)c1-c1ccc(Cl)cc1 , please look it up.
Result block: > 100 µM

Query block: What do we get for O=C1CCc2cc([N+](=O)[O-])ccc2O1 ?
Result block: > 100 µM

Query block: What do we get for CSCC[C@@H](NC(=O)[C@H](CC(C)C)NC(=O)C(Cc1cnc[nH]1)NC(=O)CNC(=O)[C@@H](NC(=O)[C@H](C)NC(=O)[C@H](Cc1cn(C=O)c2ccccc12)NC(=O)[C@H](CCC(N)=O)NC(=O)[C@@H](N)CC(N)=O)C(C)C)C(N)=O (stereo not given in full) ?
Result block: > 100 µM

Query block: What do we get for O=C(CCCCCCCCC(=O)OCCCn1cc(C(=O)NC(=O)OCc2ccccc2)c(=O)[nH]c1=O)OCCCn1cc(C(=O)NC(=O)OCc2ccccc2)c(=O)[nH]c1=O ?
Result block: > 100 µM

Query block: What do we get for COC(=O)C1=C(O)C(C(=O)OC)[C@@]2(O)[C@@H](C(=O)OC)C(c3ccc(OC(=O)C(Cc4ccccc4)NC(C)=O)cc3)C[C@@H]1[C@@H]2C(=O)OC (stereo not given in full) ?
Result block: 71.4 µM

====

# Test system: SF-295 CNS
# test summary: NCI tumour cell line growth inhibition, 48 h; in the data active means GI50 below about 0.43 µM; inactive means the rest
Pick one and only one: Yes (active), No (inactive)

Check out these entries, answers already filled in.
| molecule | answer label |
| --- | --- |
| COc1cccc(-n2cnc3c(N/N=C/c4ccncc4)ncnc32)c1 | No |
| CN1CCN(c2nc(NCCNc3ccnc4cc(Cl)ccc34)c3ccccc3n2)CC1 | No |

Now for another entry.
Query block: Tell me the assay call for COc1ccc(C2CC(c3cccc(Nc4ccnc5cc(Cl)ccc45)c3)=NN2c2ccccc2)cc1 (stereo unspecified) please.
Result block: No
